target: Adenosine receptor A3 (Rattus norvegicus, UniProt P28647)
Sequence (P28647 whole entry): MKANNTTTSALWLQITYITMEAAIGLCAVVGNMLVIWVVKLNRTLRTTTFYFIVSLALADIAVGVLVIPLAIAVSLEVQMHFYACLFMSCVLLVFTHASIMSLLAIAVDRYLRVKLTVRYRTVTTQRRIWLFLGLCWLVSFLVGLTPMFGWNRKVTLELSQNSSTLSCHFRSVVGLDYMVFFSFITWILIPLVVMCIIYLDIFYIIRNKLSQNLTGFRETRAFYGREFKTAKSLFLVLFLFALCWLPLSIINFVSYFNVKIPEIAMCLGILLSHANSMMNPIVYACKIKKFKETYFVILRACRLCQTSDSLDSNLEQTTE
pKi: −log10 of the molar value.
quantity: pKi

So what pKi did COc1ccc(CCCn2ncc3c2nc(N)n2nc(-c4ccco4)nc32)cc1 get with Adenosine receptor A3 (Rattus norvegicus, UniProt P28647)? < 5.00

###

target: Adenosine receptor A1 (Homo sapiens); test: Inhibitory activity against human adenosine A1 receptor expressed in CHO cells by displacement of [3H]DPCPX; type: cell-based
Sequence (P30542 whole entry): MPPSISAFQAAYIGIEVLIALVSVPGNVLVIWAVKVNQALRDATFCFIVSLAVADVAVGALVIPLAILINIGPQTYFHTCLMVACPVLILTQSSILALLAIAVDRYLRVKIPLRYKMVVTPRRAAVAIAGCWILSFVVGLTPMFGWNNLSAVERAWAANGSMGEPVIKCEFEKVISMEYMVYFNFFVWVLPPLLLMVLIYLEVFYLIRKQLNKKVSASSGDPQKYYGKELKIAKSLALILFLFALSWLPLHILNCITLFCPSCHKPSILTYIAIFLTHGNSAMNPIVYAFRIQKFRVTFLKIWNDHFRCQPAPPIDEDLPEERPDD
quantity: pKi
Hey, just a heads up that pKi is the negative log base 10 of the concentration in molar.

So what's the measured pKi for this one? COc1ccc(CCCn2ncc3c2nc(N)n2nc(-c4ccco4)nc32)cc1 5.95
